# Test system: SNB-78 CNS
# test summary: NCI tumour cell line growth inhibition, 48 h
List of TGI values.
outcome measure: TGI

{"columns": ["compound", "outcome measure", "result"],
 "data": [
  ["Oc1cc(O)c2c(-c3c(O)c(-c4ccc(O)c(O)c4)[o+]c4cc(O)cc(O)c34)c(O)c(-c3ccc(O)c(O)c3)[o+]c2c1", "TGI", "> 100 µM"],
  ["Nc1ncnc2c1nc(Cl)n2C1OC2COP(=O)(O)OC2C1O (stereo unspecified)", "TGI", "> 300 µM"],
  ["O=[N+]([O-])c1nccn1CC(O)CN1CC1 (stereo unspecified)", "TGI", "> 100 µM"],
  ["CCOc1ccccc1NC(=O)CC1SC(=Nc2ccc([N+](=O)[O-])cc2)NC1=O (stereo unspecified)", "TGI", "> 100 µM"],
  ["CCCCCC/C=C1\\CCC(CN2CCCC2)C1=O (stereo unspecified)", "TGI", "60.2 µM"],
  ["CCCCCCCCCCCCCC(=O)CC(=O)c1c(O)cccc1O", "TGI", "75.5 µM"],
  ["COC(=O)/C([Se]c1c(C)cc(C)cc1C)=C(\\[Se]c1c(C)cc(C)cc1C)C(=O)OC", "TGI", "> 100 µM"],
  ["O=C(CO)CC(=O)C(=O)Nc1ccccc1", "TGI", "> 100 µM"],
  ["Cc1cc2nc(CCC(=O)O)c(=O)[nH]c2cc1C", "TGI", "> 100 µM"],
  ["CCC1(c2c(F)c(F)c(N)c(F)c2F)CCC(=O)NC1=O (stereo unspecified)", "TGI", "> 100 µM"],
  ["N#CC(C(=O)CCC(=O)C(C#N)c1ccccc1)c1ccccc1 (stereo unspecified)", "TGI", "> 100 µM"]
]}

----------
List of TGI values.
# Test system: KM12 colon
# test summary: NCI tumour cell line growth inhibition, 48 h
outcome measure: TGI

{"columns": ["molecule", "outcome measure", "result"],
 "data": [
  ["COc1ccc(/C=C\\c2cc(OC)c(OC)c(OC)c2)cc1OC(=O)c1cccc(Cn2cc(CCOC(=O)[C@H](N)Cc3cn(C)c4ccccc34)nn2)c1", "TGI", "16.5 µM"],
  ["Ic1ccccc1-c1ccccc1", "TGI", "> 100 µM"],
  ["CCOC(=O)c1[nH]c(Br)c(-c2ccc(Br)cc2)c1Br", "TGI", "16 µM"],
  ["CN(C(=O)C12C3C4C1C1C4(C(=O)C45C6C7C4C4C5C6C74C)C3C12C)C(C)(C)C (stereo not drawn)", "TGI", "> 100 µM"],
  ["Cc1ccc(NN=NCCCCN)cc1", "TGI", "> 100 µM"],
  ["O=C(CC1(O)C(=O)Nc2c(Cl)ccc(Cl)c21)c1ccc2ccccc2c1 (stereo not drawn)", "TGI", "17.8 µM"],
  ["c1cc(Sc2nc(Sc3ccncc3)nc(Sc3ccncc3)n2)ccn1", "TGI", "> 100 µM"],
  ["C/C(=N\\Nc1cc(C)c2cc(C)ccc2n1)c1ccccn1", "TGI", "1.79 µM"],
  ["CC[C@H](Nc1nc(NCc2cnc(C)cc2C)c2ncn(C(C)C)c2n1)[C@@H](C)O", "TGI", "12.2 µM"],
  ["CCN1CCN(c2ccc(Nc3ccnc4ccc5c(nnn5C)c34)cc2)CC1", "TGI", "12.4 µM"],
  ["CC(C)(C)OC(=O)c1cnc(Cl)cn1", "TGI", "> 100 µM"],
  ["COc1cc(/C=C(\\C#N)C(=O)c2ccccc2)ccc1O", "TGI", "> 100 µM"],
  ["N[C@@H]1CCCC[C@H]1N.O=C([O-])C(=O)[O-].[Pt+4]", "TGI", "> 100 µM"],
  ["Clc1cc(Cc2cc(Cl)c(Cl)c3c2OCOC3)c2c(c1Cl)COCO2", "TGI", "> 100 µM"],
  ["CC(=O)OC1COC(Nc2ccc(C(C)=O)cc2)C(OC(C)=O)C1OC(C)=O (stereo not drawn)", "TGI", "> 100 µM"],
  ["CC(=O)OC[C@]1(O)CC[C@@]23CC1C[C@@H]2CCC1C(C)(C)CCC[C@@]13C (stereo partly drawn)", "TGI", "26.1 µM"],
  ["COc1ccc(C(=O)Cc2c(C(=O)c3ccccc3)c3ccccc3n2C(=O)c2ccccc2)cc1", "TGI", "> 100 µM"],
  ["CCC1(c2c(F)c(F)c(N)c(F)c2F)CCC(=O)NC1=O (stereo not drawn)", "TGI", "> 100 µM"],
  ["Cc1cc2nc(CCC(=O)O)c(=O)[nH]c2cc1C", "TGI", "> 100 µM"],
  ["Nc1c(Br)cc(Br)c2c1[nH]c(=O)c1ccccc12", "TGI", "> 100 µM"],
  ["Cc1nc2ccc(S(=O)(=O)Nc3ccccc3)cc2c(=O)n1NC(=O)CNc1ccccc1", "TGI", "> 100 µM"],
  ["CC1=C2C[C@H]3[C@@H](CC[C@@H]4CC(NS(C)(=O)=O)CC[C@@]43C)[C@@H]2CC[C@@]2(C1)O[C@@H]1C[C@H](C)CN[C@H]1[C@H]2C (stereo partly drawn)", "TGI", "22.6 µM"],
  ["C=C(C)C1Cc2c(cc(O)c3c(=O)c4c(oc23)C(O)Oc2cc(OC)c(OC)cc2-4)O1 (stereo not drawn)", "TGI", "> 10 µM"]
]}

----------
# Test system: MOLT-4 leukemia
# test summary: NCI tumour cell line growth inhibition, 48 h
List of TGI values.
outcome measure: TGI

{"columns": ["compound", "result"],
 "data": [
  ["N#CC(C(=O)CCC(=O)C(C#N)c1ccccc1)c1ccccc1 (centres undefined)", "> 100 µM"],
  ["CCC/C(=N/NC(=O)C(N)=O)C(CC)C(=O)CCC(=O)N(Cc1ccccc1)Cc1ccccc1 (centres undefined)", "> 100 µM"],
  ["CC[C@H](Nc1nc(NCc2cnc(C)cc2C)c2ncn(C(C)C)c2n1)[C@@H](C)O", "> 100 µM"],
  ["CS/C1=C(\\c2ccc(C)cc2)N(c2ccccc2)C(=O)C(=O)N(c2ccccc2)/C(c2ccc(C)cc2)=C(/SC)SS1", "> 100 µM"],
  ["CC(C)c1ccc(C2C3=C(N=C4SCC(=O)N42)C(=O)c2ccccc23)cc1 (centres undefined)", "> 100 µM"],
  ["O=c1c2ccccc2n(C[C@H]2CO2)c2ccccc12", "2.35 µM"],
  ["CCOP(=O)(CCCC(O)CNc1cc(Cl)nc(N)n1)OCC (centres undefined)", "> 100 µM"],
  ["Cc1cc2nc3c4cc(N)ccc4n(CCN(C)C)c3nc2cc1C", "> 31.9 µM"],
  ["CC(=O)OCC1OC(n2c(-c3ccccc3)c(C(C)=O)c(-c3ccc(Cl)cc3)c(C#N)c2=S)C(OC(C)=O)C(OC(C)=O)C1OC(C)=O (centres undefined)", "> 100 µM"]
]}

----------
List of TGI values.
# Tested on: NCI-H226 lung
# test summary: NCI tumour cell line growth inhibition, 48 h
outcome measure: TGI

{"columns": ["molecule", "test system", "result"],
 "data": [
  ["CC(C)c1cc(CN(C)C)c(O)c(C(C)(C)C)c1", "NCI-H226 lung", "42.5 µM"],
  ["FC(F)(Sc1ccccn1)c1nc2ccccc2o1", "NCI-H226 lung", "> 100 µM"],
  ["Cc1ccc(NN=NCCCCN)cc1", "NCI-H226 lung", "> 100 µM"],
  ["N#C/C(=C/c1ccc[nH]1)P(=O)(O)O", "NCI-H226 lung", "> 100 µM"],
  ["O=c1ccn(C2OC(CO/N=C/c3ccc(O)c(O)c3O)C(O)C2O)c(=O)[nH]1 (stereo unspecified)", "NCI-H226 lung", "> 100 µM"],
  ["CN(CCCCN1CCCC1)CCCN(C)C(=O)Cc1ccc(Cl)c(Cl)c1", "NCI-H226 lung", "51.9 µM"]
]}

----------
# System: LOX IMVI melanoma
# test summary: NCI tumour cell line growth inhibition, 48 h; in the data active means GI50 below about 0.43 µM; inactive means the rest
Outcomes: Yes = active, No = inactive

{"columns": ["compound", "assigned class"],
 "data": [
  ["CN(C)c1ccc([O][Bi]([Cl])[Cl])cc1", "No"],
  ["COc1cc(C)c(Cl)cc1C1=NN(c2ccc(S(N)(=O)=O)cc2)C(/C=C/c2ccccc2)C1 (stereo not drawn)", "No"],
  ["Nc1c(Br)cc(Br)c2c1[nH]c(=O)c1ccccc12", "No"],
  ["CCC(CO)Nc1nc(NCc2ccccc2O)c2ncn(C(C)C)c2n1 (stereo not drawn)", "No"],
  ["CC(=O)[CH-]C(=O)c1ccccc1.CC(=O)[CH-]C(=O)c1ccccc1.CC(C)CCCC(C)[C@H]1CCC2[C@@H]3CC=C4C[C@@H]([O-])CC[C@]4(C)C3CC[C@@]21C.CC[O-].[Ti+4] (stereo partly drawn)", "No"],
  ["N#Cc1nc2c(S(=O)(=O)c3ccccc3)c(N)n(Cc3cccnc3)c2nc1C#N", "No"],
  ["CC1=C2C[C@H]3[C@@H](CC[C@@H]4CC(NS(C)(=O)=O)CC[C@@]43C)[C@@H]2CC[C@@]2(C1)O[C@@H]1C[C@H](C)CN[C@H]1[C@H]2C (stereo partly drawn)", "No"],
  ["O=C1/C(=C/c2ccccc2)CN(C(=O)c2cccnc2)C/C1=C\\c1ccccc1", "Yes"]
]}
